Listed next: entries and their corresponding growth.
Tested on: OVCAR-4 ovarian
Assay: NCI-60 one-dose screen, 48 h (100 = growth as untreated, 0 = no growth, -100 = all killed)
Details: 10 µM unless noted
Procedure: Growth inhibition of the OVCAR-4 human tumor cell line is measured as a screen for anti-cancer activity. Cells are grown in 96 well plates and exposed to the test compound for 48 hours. Compounds are tested at a single concentration, which is 10^-5 M for most compounds. The reported endpoint is percent growth (GI% or GIPRCNT), where numbers from 0 - 100% represent growth inhibition, and numbers from -100% - 0 represent cell death. For example, a value of 40 represents 60% growth inhibition. […]
Compounds without any hit were thinned out: in the full panel of roughly 83,000, 20% have a hit.
The reply should contain only the number, in %.

See these solved cases before continuing.
Qu. For `Cc1ccc(NS(=O)(=O)c2ccc(-c3cnc(C4CC4)o3)cc2)cc1C(F)(F)F` , what is its reported growth?
Ans. 69.4

Qu. Try this molecule next: `C=C(C)[C@@H]1CC[C@]2(C(=O)N3CCN(C)CC3)CC[C@]3(C)[C@H](CC[C@@H]4[C@@]5(C)C/C(=C/c6ccncc6)C(=O)C(C)(C)[C@@H]5CC[C@]43C)[C@@H]12`
Ans. 53

Qu. Try this molecule next: `O=S(=O)(NCCNc1nccc(-c2c(-c3cccc(O)c3)nc3occn23)n1)c1ccc(Cl)cc1`
Ans. 126

Qu. Try this molecule next: `CC1(C)NCCC[C@]2(C)[C@H]3CC(=O)[C@H]4[C@@H]5C[C@](C)(CO)CC[C@]5(C)CC[C@@]4(C)[C@]3(C)CC[C@@H]12`
Ans. 92

Qu. Try this molecule next: CC1=C(C(=O)/C=C/c2c[nH]c3ccccc23)C(c2ccccc2)NC(=S)N1 (stereo not drawn)
Ans. 101

Qu. Try this molecule next: `N#Cc1c(NC(=O)NCc2ccccc2)sc2c1CCCCC2`
Ans. 43

Qu. Try this molecule next: NC1[C@H](c2c[nH]c3ccccc23)c2c([nH]c3ccccc23)[C@H]1c1c[nH]c2ccccc12 (stereo partly drawn)
Ans. 86.6

Alright, here's another molecule for you.
Qu. For `O=S(=O)(NCCNc1nccc(-c2c(-c3cccc(F)c3)nc3sccn23)n1)c1ccc(Cl)cc1` , what is its reported growth?
Ans. 63.6

* * *

test system: KM12 colon; test: NCI-60 one-dose screen, 48 h (100 = growth as untreated, 0 = no growth, -100 = all killed); conditions: 10 µM unless noted
About 83,000 compounds went through this panel and 20% of them were active in at least one assay; those are over-represented in the sample as a whole.
Listed next: entries and their corresponding growth.
The reply should contain only the number, in %.

See these solved cases before continuing.
Qu. Param readout = growth; param system = KM12 colon; param query = `COc1ccc(/C=C/c2nc(Nc3ccc(S(=O)(=O)Nc4cc(C)on4)cc3)c3ccccc3n2)cc1` ; response: value
Ans. 49

Qu. Try this molecule next: `NS(=O)(=O)c1ccc(CCn2c(SCC(=O)c3ccc(Cl)cc3)nc3ccccc3c2=O)cc1`
Ans. 102

Qu. Try this molecule next: `O=S(=O)(NCCNc1nccc(-c2c(-c3cccc(O)c3)nc3occn23)n1)c1cccc(F)c1`
Ans. 88.2

Qu. Try this molecule next: `CCNC(=O)Oc1ccc(/C(=C(\C)c2ccccc2)c2ccc(OCCN(CC)CC)cc2)cc1`
Ans. 72.1

Qu. Try this molecule next: `O=C(/C=C(O)/C=C/c1ccc(SC(F)(F)F)cc1)/C=C/c1ccc(SC(F)(F)F)cc1`
Ans. 81.9

Qu. Try this molecule next: CCCCC/C=C/C(C)=C/C1CC(C)C/C=C/CCC(O)C(OC(N)=O)CCC(C)CC(O)C(C)C(=O)O1 (centres undefined)
Ans. 102

More entries:
Qu. Param readout = growth; param system = KM12 colon; param query = `O=S(=O)(NCCNc1nccc(-c2c(-c3cccc(O)c3)nc3occn23)n1)c1ccc(C(F)(F)F)cc1` ; response: value
Ans. 94.4

Qu. Try this molecule next: `COc1ccc2nc(-c3ccc(-c4noc(-c5cc(OC)c(OC)c(OC)c5)n4)cc3)[nH]c2c1`
Ans. 55.4

Qu. Try this molecule next: `COc1ccc(NC(N)=NCCCOc2ccc(F)cc2)cc1`
Ans. 84.4

* * *

test system: ACHN renal; assay: NCI-60 one-dose screen, 48 h (100 = growth as untreated, 0 = no growth, -100 = all killed); conditions: 10 µM unless noted
The panel holds about 83,000 compounds, 20% with a hit somewhere; the sample as a whole holds those more often.
Note to self: values exactly at 50% are True. So growth at or above 50% is True, below is False.

Answered cases to consult:
Qu. Is the recorded value of growth equal to or greater than 50% for this compound? `Brc1ccc(Nc2csc(-c3ccccn3)n2)cc1`
Ans. True

Qu. Try this compound next: `O=C1Nc2ccccc2/C1=C\c1c(-c2ccc(F)cc2)nc2ccccn12`
Ans. True

Qu. Try this compound next: `O=S(=O)(NCCNc1nccc(-c2c(-c3cccc(F)c3)nc3sccn23)n1)c1ccccc1`
Ans. False

Qu. Try this compound next: `O=C(Nc1cccc(C2=NCCN2)c1)c1ccc(-c2ccc(C(=O)Nc3cccc(C4=NCCN4)c3)cc2)cc1`
Ans. True

Qu. Try this compound next: `CCOC(=O)/C(C#N)=C1/NNC(=Nc2cccnc2)S1`
Ans. True

More entries:
Qu. Is the recorded value of growth equal to or greater than 50% for this compound? `Oc1ccc(OCCOc2ccc(O)cc2)cc1`
Ans. False

Qu. Try this compound next: `Cc1nc2sccn2c1-c1cn2ccsc2n1`
Ans. True

Qu. Try this compound next: `Cc1nn(-c2ccccc2)c(Cl)c1/C=C/C(=O)c1ccc(F)cc1`
Ans. True

Qu. Try this compound next: `O=C1Nc2ccc(F)cc2/C1=C\c1c(-c2ccccc2)nc2ccccn12`
Ans. True

Qu. Try this compound next: `Nc1nc(Nc2ccccc2SSc2ccccc2Nc2nc(N)nc(-c3ccc(C(F)(F)F)cc3)n2)nc(-c2ccc(C(F)(F)F)cc2)n1`
Ans. False

* * *

test system: OVCAR-4 ovarian; assay: NCI-60 one-dose screen, 48 h; settings: 10 µM unless noted
This is part of a sample that, as a whole, favours compounds with a hit. Of some 83,000 tested, about 20% had one in any assay. Activity calls are given as the source filed them. Rule for the calls: active = growth percent below 10; inactive = the rest.
Form entry, call: pick from True for active, False for inactive

Answered cases to consult:
Qu. GET /call?item= `c1ccc2c(-c3c[nH]c4ccccc34)c3c(cc2c1)[nH]c1ccccc13` returns the recorded outcome of this test.
Ans. False

Qu. Try this compound next: Cn1ccc2c1CC1CN(Cc3ccco3)C(=O)C1C2C(=O)O (stereo not drawn)
Ans. False

Qu. Try this compound next: `O=C1Nc2cc(-c3cccc(O)c3)ccc2/C1=C/c1ccc[nH]1`
Ans. False

More entries:
Qu. GET /call?item= CCCCCCCCO/N=C\c1c2c(O)c3c(O)c(C)c4c(c3c1O)C(=O)C(C)(O/C=C\C(OC)C(C)C(OC(C)=O)C(C)C(O)C(C)C(O)C(C)/C=C\C=C(\C)C(=O)N2)O4 (stereo not drawn) returns the recorded outcome of this test.
Ans. False

Qu. Try this compound next: `O=C(CCN1CCCC1)Nc1ccc2c(NCCc3ccccc3)c3ccccc3nc2c1`
Ans. True

Qu. Try this compound next: NC(=NCc1ccccc1)C(N=Nc1ccccc1)C(=O)NCc1ccccc1 (stereo not drawn)
Ans. False

Qu. Try this compound next: `CCOc1ccc(Nc2nc(-c3ccc4c(c3)NC(=O)CO4)cs2)cc1`
Ans. False

Qu. Try this compound next: `CCCCCN1C=C/C(=C\C(=O)N(C)c2ccc(OC(F)(F)F)cc2)c2ccccc21`
Ans. False

Qu. Try this compound next: `O=C(NO)c1ccc(-n2nc(-c3ccccc3)c3ccccc32)cc1`
Ans. False

Qu. Try this compound next: COC(=O)C(CC=O)C(=O)C(=O)Nc1cccc(C(F)(F)F)c1 (stereo not drawn)
Ans. False

Qu. Try this compound next: `O=C1c2ccc3c4c(ccc(c24)C(=O)N1CCCNCc1ccccc1F)C(=O)N(CCCNCc1ccccc1F)C3=O`
Ans. True

Qu. Try this compound next: `CCOC(=O)c1cc(C(=O)c2ccc(OC)c(OC)c2)n2ccc(/C=C/c3cc[n+](CC(=O)c4ccc(OC)c(OC)c4)cc3)cc12`
Ans. False

Qu. Try this compound next: `COc1ccc(C/C(=C(\C)c2ccc(OCCN3CCCC3)cc2)c2ccc(OCCN3CCCC3)cc2)cc1`
Ans. False

Qu. Try this compound next: `COc1cc2c(cc1OC)C(=O)/C(=C/c1cc(C)c(O)c(C)c1)S2`
Ans. False

Qu. Try this compound next: COc1cc(C=O)ccc1OC1OC(COC(C)=O)C(OC(C)=O)C(OC(C)=O)C1OC(C)=O (stereo not drawn)
Ans. False

Qu. Try this compound next: `O=C(CSc1nc2ccccc2[nH]1)NCc1ccccc1`
Ans. False

Qu. Try this compound next: `N#C/C(=C\c1cccc(C#N)c1)c1ccccc1`
Ans. False
